For each of the compounds below, state its OLE1 % Max Inhibition.
Target: Ole1 (Saccharomyces cerevisiae, UniProt P21147)
Construct: expressed in transfected cells; host or cells: S. cerevisiae ole1Δ strain (W303 pdr1Δ pdr3Δ background), plasmid pRS316 with TDH3 promoter and CYC1 terminator
Sequence (P21147 1-510): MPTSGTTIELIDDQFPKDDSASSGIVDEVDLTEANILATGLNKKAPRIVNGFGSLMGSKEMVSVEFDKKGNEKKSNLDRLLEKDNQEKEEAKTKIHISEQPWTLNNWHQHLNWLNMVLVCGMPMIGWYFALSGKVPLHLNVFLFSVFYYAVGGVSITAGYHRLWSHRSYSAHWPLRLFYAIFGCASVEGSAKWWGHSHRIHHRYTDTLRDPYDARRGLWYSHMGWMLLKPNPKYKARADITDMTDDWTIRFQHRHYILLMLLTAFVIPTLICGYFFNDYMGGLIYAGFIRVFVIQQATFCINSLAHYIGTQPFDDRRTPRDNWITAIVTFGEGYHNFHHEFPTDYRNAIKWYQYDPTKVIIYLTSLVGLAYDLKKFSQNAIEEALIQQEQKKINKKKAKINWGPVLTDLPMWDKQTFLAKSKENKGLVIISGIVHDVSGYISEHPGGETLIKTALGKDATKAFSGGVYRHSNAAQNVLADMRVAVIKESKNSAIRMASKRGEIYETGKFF
Experiment: Growth inhibition of yeast strain expressing Ole1 as sole desaturase
Assay type: cell-based
Details: yeast strain expressing Ole1 as sole desaturase
Kindly report the value followed by its unit.

Prompt: Supply OLE1 % Max Inhibition value. Item: COc1ccc(-c2noc(C3CCN(C(=O)[C@@H]4CC(=O)N(c5ccc(C)c(C)c5)C4)CC3)n2)cc1 (single isomer, unassigned)
Response: 101.06%

Prompt: Supply OLE1 % Max Inhibition value. Item: Cc1ccc(N2CC(C(=O)N3CCC(c4nc(N5CC6(COC6)C5)no4)CC3)CC2=O)nc1 (stereo not shown)
Response: 81.2%

Prompt: Supply OLE1 % Max Inhibition value. Item: CCN(Cc1nc(-c2ccc(OC)c(OC)c2)no1)C(=O)Cc1cccc2ccccc12
Response: 91.55%

Prompt: Supply OLE1 % Max Inhibition value. Item: Cc1nn(C)c2cc(-c3noc(C4CCN(C(=O)C5CC(=O)N(CC6CC6)C5)CC4)n3)ccc12 (stereo not shown)
Response: 95.26%

Prompt: Supply OLE1 % Max Inhibition value. Item: CC(C)n1ncc2ccc(-c3noc(C4CCN(C(=O)CNC(=O)c5ccccc5)CC4)n3)cc21
Response: 6.77%

Prompt: Supply OLE1 % Max Inhibition value. Item: Cc1ccc(-c2noc(C3CCN(C(=O)[C@@H]4CC(=O)N(c5ccc(C)c(C)c5)C4)CC3)n2)cc1
Response: 86.77%

Prompt: Supply OLE1 % Max Inhibition value. Item: CCOC(=O)C(C)(C)n1ncc2ccc(-c3noc(C4CCN(C(=O)C5CC(=O)N(c6ccccc6)C5)CC4)n3)cc21 (stereo not shown)
Response: 93.87%

Prompt: Supply OLE1 % Max Inhibition value. Item: Cc1nn(C)c2cc(-c3noc(C4CCN(C(=O)N5CCOCC5)CC4)n3)ccc12
Response: 90.8%

Prompt: Supply OLE1 % Max Inhibition value. Item: O=C(c1ccccc1)N1CCC(c2nc(N3CC4(COC4)C3)no2)CC1
Response: 84.4%

Prompt: Supply OLE1 % Max Inhibition value. Item: CCN(Cc1nc(-c2ccccc2)no1)C(=O)Cc1cccc2ccccc12
Response: 63.63%

Prompt: Supply OLE1 % Max Inhibition value. Item: CCN1C(=O)COc2ccc(-c3nc(C4(c5ccc(OC)cc5)CC4)no3)cc21
Response: 89.93%

Prompt: Supply OLE1 % Max Inhibition value. Item: CC(C)c1ccc(C(=O)N2CCC(c3nc(C(=O)Nc4cnn(C)c4)no3)CC2)cc1
Response: 105.26%

Prompt: Supply OLE1 % Max Inhibition value. Item: Cc1nn(C)c2cc(-c3nsc(C4CCN(C(=O)CNC(=O)c5ccccn5)CC4)n3)ccc12
Response: 4.20%

Prompt: Supply OLE1 % Max Inhibition value. Item: Cc1nn(C)c2cc(-c3noc(N4CCN(C(=O)N5CCCCC5)CC4)n3)ccc12
Response: 74.8%

Prompt: Supply OLE1 % Max Inhibition value. Item: CC(C)n1ncc2ccc(-c3noc(C4CCN(C(=O)c5ccccc5Cl)CC4)n3)cc21
Response: 6.63%

Prompt: Supply OLE1 % Max Inhibition value. Item: CCc1c2ccc(-c3noc(C4CCN(C(=O)CNC(=O)c5ccccc5)CC4)n3)cc2nn1C
Response: 14.0%

These measurements were taken from patent US11873298B2.
